- target-desc: FmlHLD (Escherichia coli)
- Construct: 6xHis (C); made in house; host or cells: E. coli C600, periplasm, pTRC99a
- assay-procedure: biochemical
- Type: binding, E. coli
- condition-description: IC50 equated to a concentration, conversion of IC50 of 120 nM
- Protocol: Thereafter, wells were incubated with 200 μl blocking buffer (PBS+1% BSA) for 2 hours at 23° C., followed by incubation with 100 μl biotinylated FmlHLD diluted in blocking buffer to 20 μg/ml in the presence or absence of the tested compounds for 1 hr at 23° C. […] After a final round of washing, plates were developed with 100 μl Tetramethylbenzidine (TMB, BD Biosciences) substrate, quenched within 1-2 min with 50 μl […], and absorbance measured at 450 nm. […]
quantity: IC50 (nM)

[[record]]
smiles = "CC(=O)N[C@H]1[C@H](Oc2cccc(C)c2-c2cccc(NS(C)(=O)=O)c2)O[C@H](CO)[C@H](O)[C@@H]1O"
quantity = "IC50"
output_unit = "nM"
result_value = 120


* * *

- target-desc: FmlHLD (Escherichia coli, UniProt P77588)
- Construct: 6xHis (C); made in house; host or cells: E. coli C600, periplasm, pTRC99a
- Sequence (P77588 25-182): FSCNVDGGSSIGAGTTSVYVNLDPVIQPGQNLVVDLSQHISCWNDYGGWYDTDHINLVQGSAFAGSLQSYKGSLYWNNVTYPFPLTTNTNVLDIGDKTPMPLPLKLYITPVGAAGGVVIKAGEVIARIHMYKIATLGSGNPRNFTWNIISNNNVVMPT
- assay-procedure: biochemical
- Assay type: binding, E. coli
- condition-description: compound at 100 μM; inhibition of FmlHLD binding to ds-BSM
In this section, each of the compounds is paired with its reported % Inhibition at [μM] [100].
quantity: % Inhibition at [μM] [100] (%)

[[record]]
compound = "CC(=O)N[C@H]1[C@@H](Oc2ccc([N+](=O)[O-])cc2)O[C@H](CO)[C@H](O)[C@@H]1O [PNP-aGalNAc, reference compound]"
result_value = 82.04

[[record]]
compound = "O=[N+]([O-])c1ccccc1O[C@@H]1O[C@H](COP(=O)(O)O)[C@H](O)[C@H](O)[C@H]1O [ONPG-6P, reference compound]"
result_value = 1.31

[[record]]
compound = "O=[N+]([O-])c1ccc(O[C@@H]2O[C@H](CO[C@@H]3O[C@H](CO)[C@H](O)[C@H](O)[C@H]3O)[C@H](O)[C@H](O)[C@H]2O)cc1 [Gal-b1-6-PNPG, reference compound]"
result_value = 19.41

[[record]]
compound = "CC(=O)N[C@H]1[C@H](Oc2ccc([N+](=O)[O-])cc2)O[C@H](CO)[C@@H](O)[C@@H]1O[C@@H]1O[C@H](CO)[C@H](O)[C@H](O)[C@H]1O [Gal-b1-3-PNPGlcNAc, reference compound]"
result_value = "−3.60"

[[record]]
compound = "O=C(O)C1OC(Oc2ccc([N+](=O)[O-])cc2)C(O)C(O)C1O (stereo not drawn) [PNP Galacturonide, reference compound]"
result_value = "−2.40"

[[record]]
compound = "CC(=O)N[C@H]1[C@@H](Oc2ccc([N+](=O)[O-])cc2)O[C@H](CO)[C@H](O)[C@@H]1O[C@@H]1O[C@H](CO)[C@H](O)[C@H](O)[C@H]1O [Gal-b1-3-PNPGalNAc, reference compound]"
result_value = 15.28


* * *

- target-desc: FmlHLD (Escherichia coli)
- Construct: 6xHis (C); made in house; host or cells: E. coli C600, periplasm, pTRC99a
- assay-procedure: biochemical
- Type: binding, E. coli
- condition-description: read-out: PI100 (percent inhibition), galactoside at 100 μM; mean with standard error of the mean
Measured inhibition at 100 µM, listed per entry for reference.
quantity: inhibition at 100 µM (%)

[[record]]
compound = "O=C(O)c1cccc(-c2ccccc2O[C@@H]2O[C@H](CO)[C@H](O)[C@H](O)[C@H]2O)c1"
result_value = 99

[[record]]
compound = "CC(=O)N[C@H]1[C@H](Oc2ccccc2[N+](=O)[O-])O[C@H](CO)[C@H](O)[C@@H]1O"
result_value = 99.4

[[record]]
compound = "OC[C@H]1O[C@@H](Oc2cccc3ccncc23)[C@H](O)[C@@H](O)[C@H]1O [Compound 21β, 8-isoquinolinyl β-D-galactopyranoside]"
result_value = 15

[[record]]
compound = "N#Cc1ccccc1O[C@H]1O[C@H](CO)[C@H](O)[C@H](O)[C@H]1O [Compound 3α, 2-cyanophenyl α/β-D-galactopyranoside]"
result_value = 17.8


* * *

The compounds listed here are annotated with their PI100 (percent inhibition).
- target-desc: FmlHLD (Escherichia coli, UniProt P77588)
- Construct: 6xHis (C); made in house; host or cells: E. coli C600, periplasm, pTRC99a
- assay-procedure: biochemical
- Type: binding, E. coli
- condition-description: galactoside at 100 μM; mean with standard error of the mean; 100 µM
quantity: PI100 (percent inhibition) (%)

[[record]]
compound = "Cc1cc(=O)oc2c(F)c(O[C@@H]3O[C@H](CO)[C@H](O)[C@H](O)[C@H]3O)c(F)cc12 [Compound 13β]"
result_value = 49.7

[[record]]
compound = "OC[C@H]1O[C@@H](Oc2ccccc2-c2ccccc2)[C@H](O)[C@@H](O)[C@H]1O [Compound 28β]"
result_value = 91.1

[[record]]
compound = "COc1cc(OC)cc(O[C@@H]2O[C@H](CO)[C@H](O)[C@H](O)[C@H]2O)c1 [Compound 7β]"
result_value = 76.4

[[record]]
compound = "OC[C@H]1O[C@@H](Oc2cccc3cccnc23)[C@H](O)[C@@H](O)[C@H]1O [Compound 20β]"
result_value = 95.1


* * *

- target-desc: FmlHLD (Escherichia coli)
- Construct: 6xHis (C); made in house; host or cells: E. coli C600, periplasm, pTRC99a
- assay-procedure: biochemical
- Format: binding, E. coli
- condition-description: read-out: PI (0.1) (average percent inhibition), compound at 100 nM; Table 4
Label 1 when inhibition at 0.1 µM >= 0.1%; otherwise -1.

[[record]]
molecule = "CC(=O)N[C@H]1[C@H](Oc2ccccc2-c2cccc(NS(C)(=O)=O)c2)O[C@H](CO)[C@H](O)[C@@H]1O [AM2038]"
label = 1

[[record]]
molecule = "COC(=O)Nc1cccc(-c2ccccc2O[C@@H]2O[C@H](CO)[C@H](O)[C@H](O)[C@H]2NC(C)=O)c1 [AM2065]"
label = -1

[[record]]
molecule = "CC(=O)Nc1cccc(-c2ccccc2O[C@@H]2O[C@H](CO)[C@H](O)[C@H](O)[C@H]2NC(C)=O)c1 [AM2062]"
label = 1

[[record]]
molecule = "CC(=O)N[C@H]1[C@H](Oc2ccccc2-c2cccc(OS(C)(=O)=O)c2)O[C@H](CO)[C@H](O)[C@@H]1O [AM2078]"
label = 1

[[record]]
molecule = "COc1ccc(OS(C)(=O)=O)cc1-c1ccccc1O[C@@H]1O[C@H](CO)[C@H](O)[C@H](O)[C@H]1NC(C)=O [AM2077]"
label = 1

[[record]]
molecule = "COc1ccc(C(=O)O)cc1-c1ccccc1O[C@@H]1O[C@H](CO)[C@H](O)[C@H](O)[C@H]1NC(C)=O [Compound 2051]"
label = -1

[[record]]
molecule = "CNC(=O)c1cccc(-c2ccccc2O[C@@H]2O[C@H](CO)[C@H](O)[C@H](O)[C@H]2O)c1 [AM2042]"
label = -1

[[record]]
molecule = "COc1ccc(O)cc1-c1ccccc1O[C@@H]1O[C@H](CO)[C@H](O)[C@H](O)[C@H]1NC(C)=O [AM2073]"
label = 1

[[record]]
molecule = "CC(=O)N[C@H]1[C@H](Oc2ccccc2-c2cccc(CO)c2)O[C@H](CO)[C@H](O)[C@@H]1O [AM2064]"
label = 1

[[record]]
molecule = "CCOC(=O)c1ccc(OC)c(-c2ccccc2O[C@@H]2O[C@H](CO)[C@H](O)[C@H](O)[C@H]2NC(C)=O)c1 [AM2053]"
label = -1

[[record]]
molecule = "O=C(O)c1cc(-c2ccccc2O[C@@H]2O[C@H](CO)[C@H](O)[C@H](O)[C@H]2O)cc([N+](=O)[O-])c1 [AM2050]"
label = 1

[[record]]
molecule = "CS(=O)(=O)Nc1cccc(-c2ccccc2O[C@@H]2O[C@H](CO)[C@H](O)[C@H](O)[C@H]2O)c1 [AM2043]"
label = 1


* * *

Here the recorded IC50 is given for each entry.
- target-desc: FmlHLD (Escherichia coli)
- Construct: 6xHis (C); made in house; host or cells: E. coli C600, periplasm, pTRC99a
- assay-procedure: biochemical
- Format: binding, E. coli
- condition-description: IC50, inhibition of FmlHLD binding to ds-BSM
quantity: IC50 (µM)

[[record]]
compound = "CC(=O)N[C@H]1[C@H](Oc2ccccc2-c2cc(C(=O)O)cc([N+](=O)[O-])c2)O[C@H](CO)[C@H](O)[C@@H]1O [AM2119]"
result_value = 1.72

[[record]]
compound = "CC(=O)N[C@H]1[C@H](Oc2ccc3ccccc3c2-c2cccc(NS(C)(=O)=O)c2)O[C@H](CO)[C@H](O)[C@@H]1O [AM2144]"
result_value = 0.18

[[record]]
compound = "O=C(O)c1cc(-c2ccccc2O[C@@H]2O[C@H](CO)[C@H](O)[C@H](O)[C@H]2O)cc([N+](=O)[O-])c1 [AM2050]"
result_value = 0.418

[[record]]
compound = "CC(=O)N[C@H]1[C@H](Oc2cccc(C)c2-c2cccc(NS(=O)(=O)N(C)C)c2)O[C@H](CO)[C@H](O)[C@@H]1O [AM2152]"
result_value = 0.13

[[record]]
compound = "CC(=O)N[C@H]1[C@H](Oc2cccc(F)c2-c2cccc(NS(C)(=O)=O)c2)O[C@H](CO)[C@H](O)[C@@H]1O [AM2109]"
result_value = 0.151

[[record]]
compound = "CC(=O)N[C@H]1[C@H](Oc2ccccc2-c2cc(NS(=O)(=O)C(F)(F)F)ccc2F)O[C@H](CO)[C@H](O)[C@@H]1O [AM2116]"
result_value = 3.07

[[record]]
compound = "CC(=O)N[C@H]1[C@H](Oc2cccc(C)c2-c2cccc(NS(=O)(=O)C3CC3)c2)O[C@H](CO)[C@H](O)[C@@H]1O [AM2151]"
result_value = 0.12

[[record]]
compound = "COC(=O)Nc1cccc(-c2ccccc2O[C@@H]2O[C@H](CO)[C@H](O)[C@H](O)[C@H]2NC(C)=O)c1 [AM2065]"
result_value = 1.05

[[record]]
compound = "CC(=O)N[C@H]1[C@H](Oc2ccccc2-c2cccc(NC(=O)C(F)(F)F)c2)O[C@H](CO)[C@H](O)[C@@H]1O [AM2101]"
result_value = 1.02

[[record]]
compound = "CS(=O)(=O)Nc1cccc(-c2ccccc2O[C@@H]2O[C@H](CO)[C@H](O)[C@H](O)[C@H]2O)c1 [AM2043]"
result_value = 1.11

[[record]]
compound = "COc1cccc(O[C@@H]2O[C@H](CO)[C@H](O)[C@H](O)[C@H]2NC(C)=O)c1-c1cccc(NS(C)(=O)=O)c1 [AM2082]"
result_value = 0.151

[[record]]
compound = "Cc1cccc(O[C@@H]2O[C@H](CO)[C@H](O)[C@H](O)[C@H]2NS(C)(=O)=O)c1-c1cccc(NS(C)(=O)=O)c1 [AM2186]"
result_value = 3.5

[[record]]
compound = "CC(=O)N[C@H]1[C@H](Oc2cccc(C(F)(F)F)c2-c2cccc(NS(C)(=O)=O)c2)O[C@H](CO)[C@H](O)[C@@H]1O [AM2134]"
result_value = 0.085

[[record]]
compound = "O=[N+]([O-])c1cccc(-c2ccccc2O[C@@H]2O[C@H](CO)[C@H](O)[C@H](O)[C@H]2O)c1 [AM3049]"
result_value = 15

[[record]]
compound = "CC(=O)N[C@H]1[C@H](Oc2cccc(C#N)c2-c2cccc(NS(C)(=O)=O)c2)O[C@H](CO)[C@H](O)[C@@H]1O [AM2107]"
result_value = 0.109

[[record]]
compound = "CC(=O)Nc1cccc(-c2ccccc2O[C@@H]2O[C@H](CO)[C@H](O)[C@H](O)[C@H]2NC(C)=O)c1 [AM2062]"
result_value = 0.623

[[record]]
compound = "Cc1cccc(O[C@@H]2O[C@H](CO)[C@H](O)[C@H](O)[C@H]2NC(=O)C(F)(F)F)c1-c1cccc(NS(C)(=O)=O)c1 [AM2129]"
result_value = 0.105

[[record]]
compound = "CC(=O)N[C@H]1[C@H](Oc2ccccc2-c2cccc(NS(=O)(=O)C(F)(F)F)c2)O[C@H](CO)[C@H](O)[C@@H]1O [AM2112]"
result_value = 2.43

[[record]]
compound = "CC(=O)N[C@H]1[C@H](Oc2cccc(C(=O)O)c2-c2cccc(NS(C)(=O)=O)c2)O[C@H](CO)[C@H](O)[C@@H]1O [AM2148]"
result_value = 0.13

[[record]]
compound = "CC(=O)N[C@H]1[C@H](Oc2cccc(C(=O)OCc3ccccc3)c2-c2cccc(NS(C)(=O)=O)c2)O[C@H](CO)[C@H](O)[C@@H]1O [AM2141]"
result_value = 0.18

[[record]]
compound = "CC(=O)N[C@H]1[C@H](Oc2cccc(C)c2-c2cccc(NS(C)(=O)=O)c2)O[C@H](CO)[C@H](O)[C@@H]1O [AM2110]"
result_value = 0.122

[[record]]
compound = "CC(=O)N[C@H]1[C@H](Oc2ccccc2-c2cccc(NS(C)(=O)=O)c2)O[C@H](CO)[C@H](O)[C@@H]1O [AM2038]"
result_value = 0.271

